IC50 reference
Biological target: Recombinant human LSD1 (Homo sapiens)
Test: LSD1 inhibition assay (HTRF LSD1 Histone H3K4 mono-demethylation assay, me1->me0)
Assay type: biochemical
Details: 20 nM recombinant human LSD1, 95 nM H3K4(me1) biotinylated peptide, 15 min preincubation, 60 min at 25° C., read-out: LSD1 inhibition IC50 (nM range)

// known answers, use as guide
compound: N#Cc1ccc(-c2cc(F)cc(C[C@@H]3CNCCO3)c2-c2ccns2)cc1F (single isomer, unassigned)
test_system: Recombinant human LSD1 (Homo sapiens)
metric: IC50
endpoint_result: 10 to 25 nM
//
compound: N#Cc1ccc(-c2cccc(CN3CCCC34CCCNC4)c2Cl)cc1F (stereo not shown)
test_system: Recombinant human LSD1 (Homo sapiens)
metric: IC50
endpoint_result: > 1000 nM

Lab book: IC50 of N#Cc1ccc(-c2cccc(CC3CNCCO3)c2-c2ccns2)cc1 (stereo not shown) noted as 10 to 25 nM

Lab book: IC50 of CC1(C)CNCC(Cc2cccc(-c3ccc(C#N)cc3)c2-c2cncs2)O1 (stereo not shown) noted as 10 to 25 nM

Lab book: IC50 of COc1ccc(CC2CNCCO2)cc1-c1ccc(C#N)c(F)c1 (stereo not shown) noted as > 1000 nM

Lab book: IC50 of N#Cc1ccc(-c2cccc(CC3CNCCO3)c2C#N)cc1F (stereo not shown) noted as > 1000 nM

Lab book: IC50 of N#Cc1ccc(-c2cc(CC3CNCCCO3)ccc2N2CCC2)cc1F (stereo not shown) noted as 25 to 100 nM

---

Target: Recombinant human LSD1 (Homo sapiens)
Assay: LSD1 inhibition assay (HTRF LSD1 Histone H3K4 mono-demethylation assay, me1->me0)
Format: biochemical
Conditions: 20 nM recombinant human LSD1, 95 nM H3K4(me1) biotinylated peptide, 15 min preincubation, 60 min at 25° C., read-out: LSD1 inhibition IC50 (nM range)
Where a name gives a salt, the structure may show the parent alone.
IC50 reference

// known answers, use as guide
molecule: Cc1cc(NCC2CNCCO2)c(Cl)c(-c2ccc(C#N)c(F)c2)c1 (stereo not drawn)
test_system: Recombinant human LSD1 (Homo sapiens)
endpoint_result: > 1000 nM

molecule: Cc1cc(Oc2ccc(CC3CNCCO3)cc2-c2ccc(C#N)c(F)c2)ccn1 (stereo not drawn)
test_system: Recombinant human LSD1 (Homo sapiens)
endpoint_result: 100 to 1000 nM

molecule: N#Cc1ccc(-c2cccc(C[C@@H]3CNCCO3)c2C2=CCOC2)cc1F (single isomer, unassigned)
test_system: Recombinant human LSD1 (Homo sapiens)
endpoint_result: < 10 nM

Lab book: IC50 of CC1(O)CCN(c2ccc(CC3CNCCO3)cc2-c2ccc(C#N)c(F)c2)CC1 (stereo not drawn) noted as 25 to 100 nM

Lab book: IC50 of N#Cc1ccc(-c2cccc(CC3CCNC3)c2-c2ccns2)cc1F (stereo not drawn) [Example 109, hydrochloride] noted as < 10 nM

---

IC50 reference
Biological target: Recombinant human LSD1 (Homo sapiens)
Experiment: LSD1 inhibition assay (HTRF LSD1 Histone H3K4 mono-demethylation assay, me1->me0)
Format: biochemical
Conditions: 20 nM recombinant human LSD1, 95 nM H3K4(me1) biotinylated peptide, 15 min preincubation, 60 min at 25° C., read-out: LSD1 inhibition IC50 (nM range)

// known answers, use as guide
compound: N#Cc1ccc(-c2cccc(CN3C[C@H](N)C[C@H](C(F)(F)F)C3)c2Cl)cc1F [Example 326]
IC50: > 1000 nM
--
compound: N#Cc1ccc(-c2cc(CC3CNCCO3)ccc2N2CC3(CCOCC3)C2)cc1F (centres unmarked) [Example 62]
IC50: 100 to 1000 nM
--
compound: C[C@]1(N)C[C@H]2CC[C@@H]1N2Cc1cccc(-c2ccc(C#N)c(F)c2)c1C1CC1 (racemic) [Example 229]
IC50: 25 to 100 nM
--
compound: Cc1cnsc1-c1c(CC2CNCCO2)cccc1-c1ccc(C#N)c(F)c1 (centres unmarked) [Example 45]
IC50: 100 to 1000 nM

Lab book: IC50 of N#Cc1ccc(-c2cccc(C[C@@H]3CNCCO3)c2-c2ccns2)cc1 (single isomer, unassigned) [Example 11] noted as 10 to 25 nM

Lab book: IC50 of COc1cnc(-c2ccc(CN3[C@@H]4CC[C@H]3[C@@H](N)C4)cc2-c2ccc(C#N)c(F)c2)cn1 (racemic) [Example 317] noted as 10 to 25 nM

Lab book: IC50 of N#Cc1ccc(-c2ccc(F)c(CN3C[C@]4(N)CC[C@H]3C4)c2-c2ccns2)cc1F [Example 185] noted as < 10 nM

Lab book: IC50 of N#Cc1ccc(-c2cccc(CN3C[C@]4(N)CC[C@H]3C4)c2N2CCC2)cc1F [Example 172] noted as 10 to 25 nM

---

Target: Recombinant human LSD1 (Homo sapiens, UniProt O60341)
Test: LSD1 inhibition assay (HTRF LSD1 Histone H3K4 mono-demethylation assay, me1->me0)
Assay type: biochemical
Settings: 20 nM recombinant human LSD1, 95 nM H3K4(me1) biotinylated peptide, 15 min preincubation, 60 min at 25° C., read-out: LSD1 inhibition IC50 (nM range)
IC50 reference

compound: N#Cc1ccc(-c2cccc(CN3[C@H]4CC[C@H](N)[C@@H]3CC4)c2Cl)cc1F (racemic)
test_system: Recombinant human LSD1 (Homo sapiens, UniProt O60341)
IC50: 100 to 1000 nM

Lab book: IC50 of CC(C)c1c(CN2[C@@H]3CC[C@H]2[C@@H](N)C3)cccc1-c1ccc(C#N)c(F)c1 (racemic) noted as 25 to 100 nM

---

Biological target: Recombinant human LSD1 (Homo sapiens, UniProt O60341)
Test: LSD1 inhibition assay (HTRF LSD1 Histone H3K4 mono-demethylation assay, me1->me0)
Format: biochemical
Details: 20 nM recombinant human LSD1, 95 nM H3K4(me1) biotinylated peptide, 15 min preincubation, 60 min at 25° C., read-out: LSD1 inhibition IC50 (nM range)
Experimental: LSD1 biochemical activity was measured using the HTRF® LSD1 Histone H3K4 mono-demethylation assay (me1->me0). […] Fluorescence was measured on an Envision 2103 plate reader with optical setup for […] in the HTRF mode. The ratio of acceptor and donor emission signals was calculated for each well. Percent inhibition values were calculated from the HTRF ratios at different doses and fitted to a 4-parameter logistic curve to determine IC50 values. […]
IC50 reference

compound: N#Cc1ccc(-c2cccc(CC3CNCCO3)c2-c2cncs2)cc1 (stereo not shown)
test_system: Recombinant human LSD1 (Homo sapiens, UniProt O60341)
endpoint_result: 10 to 25 nM

Lab book: IC50 of N#Cc1ccc(-c2cccc(CN3CC4CNC(C4)C3)c2Cl)cc1F (stereo not shown) noted as 100 to 1000 nM

Lab book: IC50 of CN[C@@H]1C[C@@H]2CC[C@H]1N2Cc1cccc(-c2ccc(C#N)c(F)c2)c1C1CC1 (single isomer, unassigned) noted as 10 to 25 nM

Lab book: IC50 of N#Cc1ccc(-c2cc(CN3[C@@H]4CC[C@H]3[C@@H](N)C4)ccc2OCCC(F)F)cc1F (racemic) noted as < 10 nM

---

Biological target: Recombinant human LSD1 (Homo sapiens, UniProt O60341)
Test: LSD1 inhibition assay (HTRF LSD1 Histone H3K4 mono-demethylation assay, me1->me0)
Type: biochemical
Settings: 20 nM recombinant human LSD1, 95 nM H3K4(me1) biotinylated peptide, 15 min preincubation, 60 min at 25° C., read-out: LSD1 inhibition IC50 (nM range)
IC50 reference

Reported Recombinant human LSD1 (Homo sapiens, UniProt O60341) IC50 for item "N#Cc1ccc(-c2cccc(Cn3cc4c(n3)CNCC4)c2-c2cncs2)cc1F" was 25 to 100 nM

Reported Recombinant human LSD1 (Homo sapiens, UniProt O60341) IC50 for item N#Cc1ccc(-c2cc(CC3CNCCO3)ccc2N2CCOCC2)cc1F (centres unmarked) was > 1000 nM

---

IC50 reference
Biological target: Recombinant human LSD1 (Homo sapiens, UniProt O60341)
Assay: LSD1 inhibition assay (HTRF LSD1 Histone H3K4 mono-demethylation assay, me1->me0)
Assay type: biochemical
Settings: 20 nM recombinant human LSD1, 95 nM H3K4(me1) biotinylated peptide, 15 min preincubation, 60 min at 25° C., read-out: LSD1 inhibition IC50 (nM range)

compound: N#Cc1ccc(-c2cccc(C[C@@H]3CNCCO3)c2-c2ocnc2F)cc1
test_system: Recombinant human LSD1 (Homo sapiens, UniProt O60341)
IC50: 10 to 25 nM

compound: N#Cc1ccc(-c2cc(CN3[C@@H]4CC[C@H]3[C@@H](N)C4)ccc2N2CCC3(CCCO3)CC2)cc1F (racemic)
test_system: Recombinant human LSD1 (Homo sapiens, UniProt O60341)
IC50: 10 to 25 nM

compound: N#Cc1ccc(-c2cc(CC3CNCCO3)ccc2N2CCCOCC2)cc1F (centres unmarked)
test_system: Recombinant human LSD1 (Homo sapiens, UniProt O60341)
IC50: 100 to 1000 nM

compound: C[C@@]1(N)CCN(Cc2cccc(-c3ccc(C#N)c(F)c3)c2-c2ccns2)C1
test_system: Recombinant human LSD1 (Homo sapiens, UniProt O60341)
IC50: 10 to 25 nM

Lab book: IC50 of "N#Cc1ccc(-c2cccc(CN3C[C@]4(N)CC[C@H]3C4)c2Cl)cc1F" noted as 25 to 100 nM

The reported numbers originate from patent US20260209214A1.
